Reference source: patent US10968190B2

system: cancer stem cells (CSC) derived from four glioblastoma patients; test: Cytotoxicity in cancer stem cells from glioblastoma patients; assay type: cell-based, human; conditions: CSC GBM #5, 24 h; read-out: Cytotoxicity EC50 24 h
assay_readout: EC50
Entry format: amount then unit.

Look up EC50 for this compound: Cn1nnc2c(C(N)=O)ncn2c1=O [temozolamide]
250 µM

----------
Tested on: cancer stem cells (CSC) derived from four glioblastoma patients
Assay: Cytotoxicity in cancer stem cells from glioblastoma patients
Format: cell-based, human
Conditions: CSC GBM #3, 24 h; read-out: Cytotoxicity EC50 24 h
Description: Tissue samples from high grade gliomas WHO grade IV from newly diagnosed patients (medium age of 54±10 years) were minced mechanically, digested enzymatically and the dissociated cells were filtered. […] The number of remaining adherent cells were stained (crystal violet or Alamar Blue) and quantified by absorbance measurements (540 nm). Cell survival was expressed as the percentage of cells surviving relative to the number of cells surviving in untreated control cultures. […]
assay_readout: pEC50
Here pEC50 is given on a logarithmic scale as minus log10 of the concentration in mol/L.

Look up pEC50 for this compound: Cn1nnc2c(C(N)=O)ncn2c1=O [temozolamide]
3.36
